- testTarget: human GPR119 receptor (Homo sapiens, UniProt Q8TDV5, S329A/T327A)
- Construct: N-terminal leader […]; expressed in transfected cells
- Sequence (Q8TDV5 with tags, fused parts or gaps T327A/S329A): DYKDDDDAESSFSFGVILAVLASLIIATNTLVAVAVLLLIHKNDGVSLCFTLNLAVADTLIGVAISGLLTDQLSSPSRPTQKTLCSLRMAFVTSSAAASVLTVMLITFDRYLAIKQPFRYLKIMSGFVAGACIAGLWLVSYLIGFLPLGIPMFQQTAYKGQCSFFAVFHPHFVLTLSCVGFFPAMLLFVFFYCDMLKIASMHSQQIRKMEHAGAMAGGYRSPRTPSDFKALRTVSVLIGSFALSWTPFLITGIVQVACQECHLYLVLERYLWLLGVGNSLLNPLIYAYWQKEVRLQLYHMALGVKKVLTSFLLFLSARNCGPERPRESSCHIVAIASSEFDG
- procedureSummary: cAMP assay (LANCE cAMP-384) in HEK293 cells stably expressing mutant human GPR119 receptor
- Format: cell-based
- conditions: cAMP accumulation, HEK293 cells stably expressing mutant human GPR119; read-out: EC50
pEC50: −log10 of the molar value.
// reported pEC50 for each item listed
observable: pEC50

{"columns": ["compound", "resultQualifier", "valueObserved"],
 "data": [
  ["CC(C)OC(=O)N1CCC(ON=C2CCN(c3cc(F)c(NC(N)=O)cc3F)CC2)CC1 [Example 37-1]", "=", 7.15],
  ["Cc1cc(C(=O)O)nc(N2CCC(=NOC3CCN(C(=O)OC(C)C)CC3)CC2)n1 [Example 2-65]", "<", 5.00],
  ["Cc1ccc(-c2cc(F)c(N3CCC(=NOC4CCN(C(=O)OC(C)C)CC4)CC3)cc2F)nc1 [Example 27-26]", "=", 6.06],
  ["CC(C)OC(=O)N1CCC(ON=C2CCN(c3cc(F)c(-n4cccn4)cc3F)CC2)CC1 [Example 22-3]", "=", 7.21],
  ["CC(C)OC(=O)N1CCC(ON=C2CCN(c3cc(F)c(C4SCCC[S+]4[O-])cc3F)CC2)CC1 (mixture of isomers) [Example 21-1]", "=", 6.84],
  ["CC(C)OC(=O)N1CCC(ON=C2CCN(c3cc(F)c(CN(C)CCO)cc3F)CC2)CC1 [Example 5-3]", "<", 5.00],
  ["CC(C)OC(=O)N1CCC(ON=C2CCN(c3cc(F)c(-c4nccs4)cc3F)CC2)CC1 [Example 27-18]", "=", 6.86],
  ["CC(C)OC(=O)N1CCC(ON=C2CCN(c3cc(F)c(-n4cccc4)cc3F)CC2)CC1 [Example 22-2]", "=", 6.12],
  ["CC(C)OC(=O)N1CCC(ON=C2CCN(c3cc(F)c(C(=O)NCCCN)cc3F)CC2)CC1 [Example 31-3]", "=", 6.27],
  ["CC(C)OC(=O)N1CCC(ON=C2CCN(c3cc(F)c(Cn4ccnc4)cc3F)CC2)CC1 [Example 14-4]", "=", 6.57],
  ["CC(C)OC(=O)N1CCC(ON=C2CCN(c3ccc(C=O)cc3)CC2)CC1 [Example 2-28]", "<", 5.00],
  ["CC(C)OC(=O)N1CCC(ON=C2CCN(c3cc(F)c(CNCCF)cc3F)CC2)CC1 [Example 5-9]", "=", 6.15],
  ["CC(=O)OCc1cc(F)c(N2CCC(=NOC3CCN(C(=O)OC(C)C)CC3)CC2)cc1F [Example 11-1]", "=", 7.17],
  ["CC(C)OC(=O)N1CCC(ON=C2CCN(c3nc(C=O)c(Cl)s3)CC2)CC1 [Example 2-25]", "<", 5.00],
  ["CCOC(=O)Nc1cc(F)c(N2CCC(=NOC3CCN(C(=O)OC(C)C)CC3)CC2)cc1F [Example 35-2]", "=", 7.74],
  ["COc1ccc(-c2cc(F)c(N3CCC(=NOC4CCN(C(=O)OC(C)C)CC4)CC3)cc2F)cn1 [Example 27-33]", "=", 6.05]
]}
